B1: BCL2L13 (parent)
chain: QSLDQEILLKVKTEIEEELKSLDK

Variants of: B1
assay_details: protein stability index of a GFP-peptide fusion (GPS, HEK-293T) (PSI 1-6); higher = more stable;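 also: lentivirally expressed fusions sorted by FACS into six bins by GFP to DsRed ratio, PSI derived from sequencing read proportions per bin multiplied by bin number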
assay_context: c terminus: a fixed tail appended
Below, each entry is listed with its recorded protein stability index.
Keep it simple and answer with nothing but the number.

Below, each entry is followed by its recorded protein stability index result.
QSLDQEILLKVCTEIEEELKSLDK [K12C]; 4.43
QSLDQEILLKVKTKIEEELKSLDK [E14K]; 4.15
QSLDQEIHLKVKTEIEEELKSLDK [L8H]; 5.63
QSLDQEILLKMKTEIEEELKSLDK [V11M]; 4.95
QSLDQEILLKVKTEIEEELKSLDA [K24A]; 5.1
QSLDQTILLKVKTEIEEELKSLDK [E6T]; 4.62

In plain terms, QSLDQEILLKVKTEIEEELCSLDK [K20C] has a documented protein stability index of 4.9

In plain terms, QSLDQEILLKVKTEIREELKSLDK [E16R] has a documented protein stability index of 4.79

In plain terms, QSLDQEILLKVKTEIEEELKSLEK [D23E] has a documented protein stability index of 4.29

The measured values listed here are drawn from the supplement of paper PMC10567573.
